Molecular target: Cytochrome P450 1A2 (Homo sapiens, UniProt P05177)
Sequence (P05177 whole entry): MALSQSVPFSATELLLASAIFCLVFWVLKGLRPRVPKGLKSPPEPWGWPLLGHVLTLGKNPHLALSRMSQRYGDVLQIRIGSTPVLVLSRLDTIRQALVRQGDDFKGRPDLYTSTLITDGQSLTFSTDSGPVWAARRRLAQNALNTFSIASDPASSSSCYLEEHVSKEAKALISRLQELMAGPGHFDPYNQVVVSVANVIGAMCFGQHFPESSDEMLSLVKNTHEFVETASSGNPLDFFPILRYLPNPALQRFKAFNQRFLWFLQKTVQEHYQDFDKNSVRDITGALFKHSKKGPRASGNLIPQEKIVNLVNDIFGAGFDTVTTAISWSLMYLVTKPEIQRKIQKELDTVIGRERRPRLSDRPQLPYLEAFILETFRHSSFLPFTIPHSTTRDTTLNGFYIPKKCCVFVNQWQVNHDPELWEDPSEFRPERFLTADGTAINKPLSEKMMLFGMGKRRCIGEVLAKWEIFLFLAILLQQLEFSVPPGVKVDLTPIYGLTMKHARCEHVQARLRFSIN
pIC50: −log10 of the molar value.
Give measured pIC50 for each item. Keep answers brief.

Some molecules with recorded pIC50:
smiles.code | pIC50
COC(=O)N1CCN(Cc2cc(F)cc(NC(=O)Nc3ccc(C)nc3)c2)CC1 | < 5.00
CN(C)S(=O)(=O)N1CC[C@@H](Oc2cc(F)cc(NC(=O)Nc3cccnc3)c2)C1 | 7.22

q: Give pIC50 only, for COC(=O)N1CCN(Cc2cccc(NC(=O)Nc3ccc(C)nc3)c2F)CC1 , using Cytochrome P450 1A2 (Homo sapiens, UniProt P05177) data.
a: < 5.00

----------
assay: Bioavailability in Sprague-Dawley rat; type: ADME, organism-based; settings: in vivo
outcome.measure: bioavailability (%)
Numbers only, in %.

q: Return bioavailability (reported value) for this molecule: COC(=O)N1CCN(Cc2cccc(NC(=O)Nc3ccc(C)nc3)c2F)CC1
a: 100

----------
biological target: CYP1A2 (Homo sapiens, UniProt P05177); assay: Inhibition of CYP1A2 at 10 uM; type: ADME
Give measured inhibition at 10 µM for each item. Keep answers brief.
Give bare numbers, in %.

smiles.code | display.unit | inhibition at 10 µM
CC(=O)N1CCC[C@H](Oc2cc(F)cc(NC(=O)Nc3cccnc3)c2)C1 | % | 99

Turning now to a further molecule:
q: Return inhibition at 10 µM (reported value) for this molecule: COC(=O)N1CCC[C@@H](Oc2cc(F)cc(NC(=O)Nc3cccnc3)c2)C1
a: 97

----------
test: Volume of distribution in Sprague-Dawley rat; format: ADME, organism-based; settings: in vivo
outcome.measure: Vd (L/kg)
Give bare numbers, in L/kg.

q: Return Vd (reported value) for this compound: COC(=O)N1CCN(Cc2cccc(NC(=O)Nc3ccc(C)nc3)c2F)CC1 [OMECAMTIV MECARBIL]
a: 3.5

----------
species: Rattus norvegicus; assay: Activation of Sprague-Dawley rat myosin in cardiomyocytes assessed as compound concentration resulting in 40% increase in ATPase activity at calcium concentrations that produced 25-50% of maximum calcium dependent activation; assay type: cell-based
With a cut-off of 1 µM, any Activity strictly below it is called 1.0; any Activity meeting it or above is called 0.0.

Worked examples follow.
smiles.code | class.assignment
O=C(Nc1ccc(F)cc1)Nc1cc(F)cc(Oc2cccnc2)c1 | 0.0
CN(C)S(=O)(=O)N1CC[C@@H](Oc2cc(F)cc(NC(=O)Nc3cccnc3)c2)C1 | 1.0
COC(=O)N1CCC(Oc2cc(F)cc(NC(=O)Nc3ccc(C)nc3)c2)CC1 | 1.0

q: Given CC(=O)N1CCC[C@@H](Oc2cc(F)cc(NC(=O)Nc3cccnc3)c2)C1 , is recorded Activity strictly lower than 1 µM?
a: 0.0

q: Given COC(=O)N1CCN(Cc2cccc(NC(=O)Nc3ccc(C)nc3)c2)CC1 , is recorded Activity strictly lower than 1 µM?
a: 0.0

q: Given O=C(Nc1cc(F)cc(Oc2cccnc2)c1)c1ccc(F)cc1 , is recorded Activity strictly lower than 1 µM?
a: 0.0

q: Given O=C(Nc1cc(Oc2cccnc2)cc([N+](=O)[O-])c1)c1ccc(F)cc1 , is recorded Activity strictly lower than 1 µM?
a: 0.0

q: Given O=C(Nc1cccc(Oc2cccnc2)c1)c1ccc(F)cc1 , is recorded Activity strictly lower than 1 µM?
a: 0.0

q: Given COC(=O)N1CCN(Cc2cc(F)cc(NC(=O)Nc3ccc(C)nc3)c2)CC1 , is recorded Activity strictly lower than 1 µM?
a: 0.0

----------
Give measured solubility thermodynamic for each item. Keep answers brief.
assay: Solubility of the compound at pH 5 by shake flask method; type: physicochemical; conditions: buffer
Numbers only, in µg/mL.

molecule | solubility thermodynamic [µg/mL]
CN(C)S(=O)(=O)N1CCC[C@@H](Oc2cc(F)cc(NC(=O)Nc3cccnc3)c2)C1 | 40
COC(=O)N1CCC[C@@H](Oc2cc(F)cc(NC(=O)Nc3cccnc3)c2)C1 | 18
CC(=O)N1CCC[C@@H](Oc2cc(F)cc(NC(=O)Nc3cccnc3)c2)C1 | 390

For every listed record, write down its solubility thermodynamic.
1. CN(C)S(=O)(=O)N1CC[C@@H](Oc2cc(F)cc(NC(=O)Nc3cccnc3)c2)C1
2. COC(=O)N1CCN(Cc2cccc(NC(=O)Nc3ccc(C)nc3)c2F)CC1 [OMECAMTIV MECARBIL]
3. COC(=O)N1CCN(Cc2cc(F)cc(NC(=O)Nc3ccc(C)nc3)c2)CC1

a:
[13, 2200, 4600]

----------
experiment: Solubility of the compound at pH 5 by shake flask method; format: physicochemical; details: buffer
outcome.measure: log10(solubility thermodynamic) (log10 of the value in µg/mL)
Reminder: these figures are log10 of reported solubility thermodynamic, in µg/mL before transformation.

Some compounds with recorded log10(solubility thermodynamic):
smiles.code | log10(solubility thermodynamic)
CC(=O)N1CCC[C@H](Oc2cc(F)cc(NC(=O)Nc3cccnc3)c2)C1 | 2.74
CC(=O)N1CCC[C@@H](Oc2cc(F)cc(NC(=O)Nc3ccc(C)nc3)c2)C1 | 2.11
COC(=O)N1CCC(Oc2cc(F)cc(NC(=O)Nc3ccc(C)nc3)c2)CC1 | 1.23
O=C(Nc1cccnc1)Nc1cc(F)cc(Oc2cccnc2)c1 | 1.45

Turning now to a further compound:
q: Return log10(solubility thermodynamic) (reported value) for this compound: COC(=O)N1CCN(Cc2cccc(NC(=O)Nc3ccc(C)nc3)c2)CC1
a: 3.60

----------
Give measured fraction unbound for each item. Keep answers brief.
experiment: Plasma protein binding in Sprague-Dawley rat; assay type: ADME, cell-free; conditions: read-out: PPB (converted)
Answers are plain numbers.

Some molecules with recorded fraction unbound:
smiles.code | fraction unbound
CC(=O)N1CCC[C@@H](Oc2cc(F)cc(NC(=O)Nc3cccnc3)c2)C1 | 0.175
COc1ccc(NC(=O)Nc2cc(F)cc(Oc3cccnc3)c2)cc1 | 0.049
COc1ccc(NC(=O)Nc2cc(F)cc(Oc3cccnc3)c2)cn1 | 0.075
CN(C)S(=O)(=O)N1CCC[C@@H](Oc2cc(F)cc(NC(=O)Nc3cccnc3)c2)C1 | 0.079
O=C(Nc1cccnc1)Nc1cc(F)cc(Oc2cccnc2)c1 | 0.071

For every listed record, write down its fraction unbound.
1. COC(=O)N1CCN(Cc2cccc(NC(=O)Nc3ccc(C)nc3)c2)CC1
2. COC(=O)N1CCN(Cc2cc(F)cc(NC(=O)Nc3ccc(C)nc3)c2)CC1
3. COC(=O)N1CCC[C@@H](Oc2cc(F)cc(NC(=O)Nc3cccnc3)c2)C1

a:
0.128
0.103
0.096

----------
assay: Kinetic solubility of the compound; format: physicochemical
Kindly return Y if reported solubility kinetic is no lower than 5 µg/mL; return N if it is lower.

Worked examples follow.
smiles.code | class.assignment
COc1ccc(NC(=O)Nc2cc(F)cc(Oc3cccnc3)c2)cc1 | N
COc1ccc(NC(=O)Nc2cc(F)cc(Oc3cccnc3)c2)cn1 | Y

q: Hello, I need to know if O=C(Nc1cc(Oc2cccnc2)cc([N+](=O)[O-])c1)c1ccc(F)cc1 has measured solubility kinetic not below 5 µg/mL. Thanks!
a: N

q: Hello, I need to know if O=C(Nc1cc(F)cc(Oc2cccnc2)c1)c1ccc(F)cc1 has measured solubility kinetic not below 5 µg/mL. Thanks!
a: Y

q: Hello, I need to know if O=C(Nc1ccc(F)cc1)Nc1cc(F)cc(Oc2cccnc2)c1 has measured solubility kinetic not below 5 µg/mL. Thanks!
a: N

q: Hello, I need to know if O=C(Nc1cccnc1)Nc1cc(F)cc(Oc2cccnc2)c1 has measured solubility kinetic not below 5 µg/mL. Thanks!
a: Y

q: Hello, I need to know if O=C(Nc1cccc(Oc2cccnc2)c1)c1ccc(F)cc1 has measured solubility kinetic not below 5 µg/mL. Thanks!
a: Y
